Measurement Name: pIC50
Just the number, please; pIC50 means minus log10 of the concentration in mol/L.

In: State pIC50 on Epidermal growth factor receptor (Homo sapiens). Entry: `COc1c(Cl)cc(-c2noc(-c3cn(Cc4cc(-c5cc(Cl)cc(Cl)c5)no4)c4ccccc34)n2)cc1Cl`
Sequence (P00533 whole entry): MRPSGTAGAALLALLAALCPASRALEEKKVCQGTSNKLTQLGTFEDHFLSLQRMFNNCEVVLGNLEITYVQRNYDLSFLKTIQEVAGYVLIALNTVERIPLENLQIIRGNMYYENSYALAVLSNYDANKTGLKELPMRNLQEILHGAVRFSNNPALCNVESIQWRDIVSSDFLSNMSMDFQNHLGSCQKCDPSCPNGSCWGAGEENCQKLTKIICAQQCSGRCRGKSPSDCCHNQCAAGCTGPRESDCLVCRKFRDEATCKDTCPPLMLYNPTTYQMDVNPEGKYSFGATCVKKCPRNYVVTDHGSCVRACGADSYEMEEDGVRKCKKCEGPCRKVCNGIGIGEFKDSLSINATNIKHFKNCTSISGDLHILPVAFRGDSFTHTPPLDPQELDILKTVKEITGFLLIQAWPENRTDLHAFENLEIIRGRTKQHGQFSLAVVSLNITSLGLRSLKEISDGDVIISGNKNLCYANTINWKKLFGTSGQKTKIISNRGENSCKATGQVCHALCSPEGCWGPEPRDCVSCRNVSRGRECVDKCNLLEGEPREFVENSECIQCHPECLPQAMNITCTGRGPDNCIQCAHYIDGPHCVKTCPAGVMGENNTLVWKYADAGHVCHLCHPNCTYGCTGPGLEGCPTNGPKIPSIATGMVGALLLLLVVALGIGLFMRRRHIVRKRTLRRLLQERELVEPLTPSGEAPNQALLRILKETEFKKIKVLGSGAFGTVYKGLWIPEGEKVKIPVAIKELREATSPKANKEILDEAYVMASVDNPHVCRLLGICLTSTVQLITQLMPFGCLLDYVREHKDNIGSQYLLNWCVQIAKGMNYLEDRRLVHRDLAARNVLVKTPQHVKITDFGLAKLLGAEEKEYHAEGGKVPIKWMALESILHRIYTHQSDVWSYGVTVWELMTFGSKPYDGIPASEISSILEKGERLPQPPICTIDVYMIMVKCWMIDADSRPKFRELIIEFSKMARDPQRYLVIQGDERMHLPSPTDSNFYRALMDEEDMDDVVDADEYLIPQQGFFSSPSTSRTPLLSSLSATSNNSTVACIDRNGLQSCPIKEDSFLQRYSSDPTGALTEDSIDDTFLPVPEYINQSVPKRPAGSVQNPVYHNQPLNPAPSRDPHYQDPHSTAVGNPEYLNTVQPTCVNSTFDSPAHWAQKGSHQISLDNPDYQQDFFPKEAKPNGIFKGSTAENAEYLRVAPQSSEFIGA
Out: 6.70
